# test.summary: refractive index (Na D-line) (dimensionless)
# condition.set: 293.15 K; 101.33 kPa; Liquid; Standard Abbe refractometry
experimental.endpoint: refractive index
Write no unit; give the number alone.

Ask: Could you tell me which refractive index is on file for CCOC(=O)CCCCC(=O)OCC [diethyl hexanedioate] ?
Result: 1.42725

Ask: Similarly, CCOC(=O)CCC(=O)OCC [diethyl butanedioate] ?
Result: 1.42014

Ask: Similarly, CCOC(=O)CCCC(=O)OCC [diethyl glutarate] ?
Result: 1.42414

Ask: Similarly, O ?
Result: 1.3324

----------
Hi there, I'd appreciate the recorded mass density for every entry that follows.
# condition.set: 293.15 K; 101.33 kPa; Liquid; Vibrating tube method
Report as a plain number; the unit kg/m3 is understood.

Ask: Could you tell me which mass density is on file for CCOC(=O)CCC(=O)OCC [diethyl butanedioate] ?
Result: 1040.22

Ask: Similarly, O [water] ?
Result: 999.9

Ask: Similarly, CCOC(=O)CCCCC(=O)OCC [diethyl hexanedioate] ?
Result: 1007.63

Ask: Similarly, CCOC(=O)CCCC(=O)OCC [diethyl glutarate] ?
Result: 1022.04

----------
# condition.set: Liquid; Fischer Boiling Piont Apparatus
experimental.endpoint: Normal boiling temperature (°C)
Report as a plain number; the unit °C is understood.

Ask: Could you tell me which Normal boiling temperature is on file for CCOC(=O)CCC(=O)OCC [diethyl butanedioate] ?
Result: 217.7

Ask: Similarly, CCOC(=O)CCCCC(=O)OCC [diethyl hexanedioate] ?
Result: 245.1

Ask: Similarly, O ?
Result: 100.1

Ask: Similarly, CCOC(=O)CCCC(=O)OCC [diethyl glutarate] ?
Result: 236.5
